tested.on: His-LC3A (human, UniProt Q9H492 1-121)
assay.details: ITC
observable: Kd (µM)

# binder, observable, endpoint.result
rows = [
    ("GSGTWTLVDEG [hEPG5-LIR1 peptide]", "Kd", 20.4),
]

Cited source for all entries: paper PMC7935953
